# System: LPS-induced iNOS-dependent NO production in RAW 264.7 cells
# Assay Notes: Inhibition of LPS-induced iNOS-dependent NO production (Griess nitrite assay)
# Format: cell-based, murine
# Recorded Conditions: Mus musculus, RAW264.7; 25 μM, RAW 264.7, 100 ng/mL LPS, 24 h; read-out: NO inhibition (% of control) (converted)
Readout Kind: inhibition at 25 µM
A bare number is not enough; add the unit after it.

Prompt: State its inhibition at 25 µM for this compound: CC[C@H](CC[C@@H](C)[C@H]1CC[C@H]2[C@@H]3CC=C4C[C@@H](O)CC[C@]4(C)[C@H]3CC[C@]12C)C(C)C
Completion: 15.1%

Prompt: State its inhibition at 25 µM for this compound: CC(=O)OCC1CC23CCC4[C@@](C)(CCC[C@]4(C)C(=O)O)C2CCC1C3 (stereo partly drawn)
Completion: 10.6%

Prompt: State its inhibition at 25 µM for this compound: C[C@@]12CCC[C@](C)(C(=O)O)C1CCC13CC(CCC12)C(C(=O)O)C3 (stereo partly drawn) [Compound 8, 16α-hydro-ent-kauran-17,19-dioic acid]
Completion: 21.9%

Prompt: State its inhibition at 25 µM for this compound: C=C(C)C(CC[C@@H](CO)[C@H]1CC[C@@]2(C)C3CCC4C(C)(C)[C@@H](O)[C@H](O)C[C@@]45C[C@@]35CC[C@]12C)C(C)C (stereo partly drawn)
Completion: 26.2%

Prompt: State its inhibition at 25 µM for this compound: C[C@@]12CCC[C@](C)(C=O)C1CCC13CC(CCC12)C(C(=O)O)C3 (stereo partly drawn) [Compound 5, 16α-hydro-19-al-ent-kauran-17-oic acid]
Completion: 27.1%

Prompt: State its inhibition at 25 µM for this compound: C=C1C[C@@]23CC[C@H]4[C@@](C)(CCC[C@@]4(C)C(=O)O)[C@@H]2CC[C@@H]1C3
Completion: 22.7%

The measured values listed here are drawn from paper PMC6270106.
